- Assay Explanation: Human HepG2 cell viability assay in 384 well format
- Format: toxicity, cell-based
- Parameters: dose 125 nL, time 70.5 hour; concentration not given beside the values
- Assay Setup: HepG2 cells, read-out: Inhibition
Below is a list of entries, each paired with its recorded cytotoxicity at 70.5 h value.
Quick reminder: number only, in %, skip the unit.

Reference set, count: 6
{"Compound": "Cc1nn(C)c(N(C)C)c1CNCc1ccc(C(=O)N(C)C)cc1", "cytotoxicity at 70.5 h / %": 4.69}
{"Compound": "Cc1c(Cl)cc(C(=O)NCCc2ncnn2C)cc1Cl", "cytotoxicity at 70.5 h / %": -9.97}
{"Compound": "c1ccc2c(c1)CN(c1ncnc3sc4c(c13)CCNC4)CCO2", "cytotoxicity at 70.5 h / %": 0.0341}
{"Compound": "CNC(=O)C1(CCCc2ccncc2)CCCN1 (configuration not stated)", "cytotoxicity at 70.5 h / %": -7.77}
{"Compound": "O=C(O)C(c1ccc2c(c1)OCCO2)N1CCSCC1 (configuration not stated)", "cytotoxicity at 70.5 h / %": -3.24}
{"Compound": "O=S(=O)(NCC1(c2cccs2)CCCC1)c1cccnc1", "cytotoxicity at 70.5 h / %": -4.26}

Lookup: Record request: cytotoxicity at 70.5 h value, item `Cc1nc2cc(=O)[nH]n2c(C)c1CC(=O)Nc1cnn(C)c1`
Found: 0.718

Lookup: Record request: cytotoxicity at 70.5 h value, item COc1ccccc1C1(C(=O)N2CCCC(c3cc(C)[nH]n3)C2)CC1 (configuration not stated)
Found: -0.122

Lookup: Record request: cytotoxicity at 70.5 h value, item Cc1nn2c(N3CCCC(C#N)C3)cc(-c3ccccc3)nc2c1C (configuration not stated)
Found: 1.82

Lookup: Record request: cytotoxicity at 70.5 h value, item `COc1c(CNCc2ccc(N(C)C)nc2)c(C)nn1C`
Found: 24.3

Lookup: Record request: cytotoxicity at 70.5 h value, item CC(NCCc1nccn1Cc1ccccc1)c1cccs1 (configuration not stated)
Found: 13.3

Lookup: Record request: cytotoxicity at 70.5 h value, item `COCCNC(=O)c1cc(COc2cncc(Cl)c2)on1`
Found: -3.27

Values from ChEMBL document CHEMBL3507680
